# Test system: E. coli
# assay explanation: Antibacterial activity in vitro, preparation in a cavity of nutrient agar
# Assay type: cell-based
# reported conditions: Table 7
The compounds listed here are annotated with their Inhibiting level.

Completed entries (count: 3):
O=C(NN=Cc1c(OCCOc2ccc3ccccc3c2C=NNC(=O)c2ccccc2)ccc2ccccc12)c1ccccc1: >50 µg/mL
O=C(NN=Cc1ccccc1OCCOCCOCCOCCOc1ccccc1C=NNC(=O)c1ccncc1)c1ccncc1: >50 µg/mL
O=Cc1ccccc1OCCOc1ccccc1C=O: >200 µg/mL

Given the entry O=C(NN=Cc1ccccc1OCCCCOCCCCOc1ccccc1C=NNC(=O)c1cccnc1)c1cccnc1 , what Inhibiting level was observed with E. coli?
>100 µg/mL

Given the entry O=C(NN=Cc1cccc(OCCOCCOCCOc2cccc(C=NNC(=O)c3cccnc3)c2)c1)c1cccnc1.[Ni] , what Inhibiting level was observed with E. coli?
>50 µg/mL

Given the entry COc1cc(C=NNC(=O)c2ccccc2)ccc1OCCOc1ccc(C=NNC(=O)c2ccccc2)cc1OC , what Inhibiting level was observed with E. coli?
>50 µg/mL

----------
# assay explanation: Acute toxicity on mice (per os)
# reported conditions: mouse, in vivo, po; white mice, per os in 0.5% solution of starch for 5 days
The compounds listed here are annotated with their LD50.

O=C(NN=Cc1ccccc1OCCOCCOCCOc1ccccc1C=NNC(=O)c1ccncc1)c1ccncc1: > 2000 mg/kg

I'd like to know its LD50. The compound in question is O=C(NN=Cc1ccccc1OCCOCCOc1ccccc1C=NNC(=O)c1ccccc1)c1ccccc1
> 1000 mg/kg

----------
The compounds listed here are annotated with their Antimycobacterial activity of claimed preparations in tests In vitro.
# Test system: M. avium
# assay explanation: Antimycobacterial activity in vitro, vertical diffusion on dense nutrient
# Format: cell-based
# reported conditions: Atypical strain M. avium
# output: number + unit

C=CCSc1nc2ccc(NC(=O)c3ccccc3Cl)cc2s1 [Compound formula (II), reference compound]: 25.0 µg/mL
O=C(NN=Cc1ccccc1OCCOCCOCCOc1ccccc1C=NNC(=O)c1ccncc1)c1ccncc1: 25.0 µg/mL
O=Cc1ccc(Cl)cc1OCCOc1cc(Cl)ccc1C=O [1,2-Bis(2-formyl-5-chlorphenoxy)-ethane]: 25.0 µg/mL
NNC(=O)c1ccncc1 [Isoniazid, hydrazide of isonicotinic acid, reference compound]: 50.0 µg/mL

Next compound, please.
I'd like to know its Antimycobacterial activity of claimed preparations in tests In vitro. The compound in question is O=C(NN=Cc1ccccc1OCCOCCOc1ccccc1C=NNC(=O)c1ccncc1)c1ccncc1
25.0 µg/mL
